Known potency estimated from few doses of a selection of compounds
# Tested on: CDC42
# Parameters: species or system human, MV4-11 + K-562 + COLO205 + SK-N-BE2 + OVCAR-8
# TEST CONTEXT: read-out: apparent Kd; compound concentrations:100 nM and 1000 nM (sheet 'Samples'); n = 1
All answers are understood in µM, so give the number only.

Recorded results for 3 compounds are shown here.
Cl.NC(=O)c1ccc(-c2nc(-c3ccccn3)c(-c3ccc4c(c3)OCO4)[nH]2)cc1; 0.731
CC(C)Nc1cc(-c2ccc3c(N)n[nH]c3c2)nc(N)n1 [GSK2221681A]; 1.53
NC(=O)c1ccc(Oc2nccc(-c3c(-c4ccc(F)cc4)ncn3C3CCNCC3)n2)cc1; 0.922

**Q:** Return potency estimated from few doses for the following compound: Cc1ccc2c(-c3ccnc(Nc4ccc(C(F)(F)F)cc4)n3)cnn2n1 [GW819776X]
**A:** 1.65

====

# System: PRKACG;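 note: competition pulldown with Kinobeads ε in cell lysates, inhibitor preincubated 45 min at 4 °C, bound kinases quantified by LC–MS/MS against DMSO control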
# Design: species or system human, MV4-11 + K-562 + COLO205 + SK-N-BE2 + OVCAR-8
# TEST CONTEXT: read-out: apparent Kd; compound concentrations:0.3nM, 1nM, 3nM, 10nM, 30nM, 100nM, 300nM, 1000nM,R2:0.71933853436235096,slope:7.8735043887932097,EC50 Standard Error, by the legend:Standard error of the EC50 estimation as provided by the drc package.
RECORDED METRIC: Kd (nM)
State the answer as a number, implicitly in nM.

**Q:** Identify the reported Kd for the following entry. CCn1c(-c2nonc2N)nc2c(C#CC(C)(C)O)nc(OCCNC)cc21.Cl [GSK949675A]
**A:** 262

====

Here the recorded potency estimated from few doses is given for each entry.
# Test system: CSNK2A1;CSNK2A3
# Parameters: species or system human, MV4-11 + K-562 + COLO205 + SK-N-BE2 + OVCAR-8
# TEST CONTEXT: read-out: apparent Kd; compound concentrations:100 nM and 1000 nM (sheet 'Samples'); n = 1
Write it as a number; the unit nM goes unstated.

Previously resolved entries follow.
O=C1NC(=O)C(N2CCc3ccccc32)=C1c1ccccc1Cl; 315
CC(C)COC(=O)c1ccc2c(c1)/C(=C/Nc1ccc(S(N)(=O)=O)cc1)C(=O)N2 [GW416981X]; 477
CC(C)Oc1ccc2c(-c3ccnc(Nc4ccc(N5CCN(C)CC5)cc4)n3)cnn2n1 [GW696155X]; 416
Cc1cccc(-c2nc(Nc3ccc4[nH]ncc4c3)c3ccccc3n2)n1 [GW857175X]; 4.12
O=C(Nc1n[nH]c2nc(-c3ccc(O)cc3)ccc12)C1CC1; 2320

**Q:** Answer with reported potency estimated from few doses of O=C(O)C(F)(F)F.O=c1[nH]ccc2nc(N[C@@H]3CCNC3)nc(Nc3cc(Cl)cc(Cl)c3)c12 [GSK2188764A]
**A:** 239

**Q:** Given the compound COc1cc2c(cc1Nc1nc(Nc3ccsc3C(N)=O)c3cc[nH]c3n1)N(C(=O)CN(C)C)CCC2(C)C [GSK2163632A] , write its reported potency estimated from few doses.
**A:** 1950

**Q:** Supply recorded potency estimated from few doses for Cc1ccc2c(-c3ccncc3)c(-c3ccc(F)cc3)nn2c1.Cl [GW461484A] here.
**A:** 1550

**Q:** Could you please provide reported potency estimated from few doses for Cc1cccc(-c2nc(Nc3cccc(C(N)=O)c3)c3ccccc3n2)n1 [GW876019X] ? Thanks!
**A:** 1510

**Q:** Let me know recorded potency estimated from few doses for NS(=O)(=O)c1ccc(N/N=C2\C(=O)Nc3ccc(C(=O)NCCc4c[nH]cn4)cc32)cc1 [GW300660X] , thanks.
**A:** 2310

**Q:** Give potency estimated from few doses for the following compound: CC(C)N1CCC(n2cnc(-c3ccc(F)cc3)c2-c2ccnc(N)n2)CC1
**A:** 1070

**Q:** Input COc1cccc(-c2c[nH]c3c(N/N=C/c4ccncc4)ncnc23)c1 [GW814408X] , output reported potency estimated from few doses.
**A:** 920

**Q:** Report potency estimated from few doses for CC(=O)N[C@@H](Cc1ccc(OP(=O)(O)O)cc1)C(=O)N[C@H]1CCC(=O)N2CCC[C@@H](C(=O)NCc3ccc(Cl)cc3)N2C1=O
**A:** 1430

**Q:** Find the measured potency estimated from few doses of CS(=O)(=O)CCn1c(=O)c(Oc2ccc(F)cc2F)cc2cnc(NC3CCOCC3)nc21 and report it.
**A:** 1100
